Sourced from patent US20150175655A1

- measurement-target: NS3 genotype 3a protease (UniProt Q81258)
- Construct: Purified NS3 protease domain (amino acids 1-181) of the genotype 1b and 3a virus were generated as above; fused on or other part: N-terminal hexahistidine tag and rTEV protease cleavage site (vector p28-N6H-Tev-NS3(181)3)
- protocol-details: Ki determination, NS3 protease genotype 3a (fluorogenic depsipeptide substrate)
- Format: biochemical, hepatitis C virus
- setup-conditions: 200 pM enzyme, 20 μM NS4A peptide, 2 μM substrate, read-out: Ki 3A
In this section we review reported Ki values for a set of compounds.
// note: answer is a bare numeric in nM

Solved cases (2 shown):
>  <compound-structure>
COc1ccc2nc3c(nc2c1)O[C@H]1CN(C(=O)[C@H](C(C)(C)C)NC(=O)O[C@@H]2CCC[C@H]2CCCCC3)[C@H](C(=O)N[C@]2(C(=O)NS(=O)(=O)C3CC3)C[C@H]2C(F)F)[C@@H]1C

>  <numeric-readout>
0.08

$$$$
>  <compound-structure>
CC[C@@H]1[C@@H]2CN(C(=O)[C@H](C(C)(C)C)NC(=O)O[C@@H]3C[C@@H]4C[C@@H]4[C@H]3CCCCC(F)(F)c3nc4ccc(OC)cc4nc3O2)[C@@H]1C(=O)N[C@]1(C(=O)NS(=O)(=O)C2(C)CC2)C[C@H]1C(F)F

>  <numeric-readout>
0.09

$$$$

// switching to the query compound
Query: Ki; subject: "C[C@@H]1[C@@H]2CN(C(=O)[C@H](C(C)(C)C)NC(=O)O[C@@H]3C[C@H]3CCCCC(F)(F)c3nc4ccc(Cl)cc4nc3O2)[C@@H]1C(=O)N[C@]1(C(=O)NS(=O)(=O)C2(C)CC2)C[C@H]1C(F)F"
0.29
